system-name: T1, recombinant purified human Nectin-4-Fc fusion protein (human, UniProt Q96NY8 32-349)
T1 construct: Bought ('Aero Biosystems' as printed); not shown: Fc part of the bought fusion protein; captured by anti-human IgG Fc sensors
T1 sequence: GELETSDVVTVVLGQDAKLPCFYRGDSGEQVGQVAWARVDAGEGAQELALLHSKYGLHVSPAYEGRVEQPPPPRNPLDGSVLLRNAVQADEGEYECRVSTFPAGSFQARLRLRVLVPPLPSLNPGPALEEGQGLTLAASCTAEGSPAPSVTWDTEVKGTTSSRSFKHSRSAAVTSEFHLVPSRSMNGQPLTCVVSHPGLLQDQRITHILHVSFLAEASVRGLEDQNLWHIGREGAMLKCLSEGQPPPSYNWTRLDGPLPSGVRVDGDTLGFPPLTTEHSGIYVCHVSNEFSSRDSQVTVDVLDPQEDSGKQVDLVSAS
test: BLI (Octet), Nectin-4-Fc on anti-human Fc sensors, run 1
pKd: −log10 of the molar value.
assay-readout: pKd

LV1186xVδ2 (bispecific antibody, Orientation N-term-anti-Nectin-4 VHH-linker-anti-Vδ2 VHH (5C8); no Fc; also called Nectin-4xVδ2 bispecific VHH) EVQLVESGGGLVQAGGSLRLSCAASRSTFSLNIMGWYRQAPGKQREYVATITSGGSTNYADSVRGRFTISRDNAENTVYLQMDSLKPEDTAVYYCTAELVRRGPTTYWGRGTQVTVSSGGGGSEVQLVESGGGLVQAGGSLRLSCAASGRPFSNYAMGWFRQAPGKEREFVAAISWSGGSTSYADSVKGRFTISRDNAKNTVYLQMNSPKPEDTAIYYCAAQFSGADYGFGRLGIRGYEYDYWGQGTQVTVSS
8.64
LV1185xVδ2 (bispecific antibody, Orientation N-term-anti-Nectin-4 VHH-linker-anti-Vδ2 VHH (5C8); no Fc; also called Nectin-4xVδ2 bispecific VHH) EVQLVESGGGLVQAGGSLRLSCAASRSTFSLNIMGWYRQAPGKQREYVATITTGGSTNYADSVRGRFTISRDNAEDTVYLQMNSLKPEDTAVYYCTAELVRRGPTTYWGRGTQVTVSSGGGGSEVQLVESGGGLVQAGGSLRLSCAASGRPFSNYAMGWFRQAPGKEREFVAAISWSGGSTSYADSVKGRFTISRDNAKNTVYLQMNSPKPEDTAIYYCAAQFSGADYGFGRLGIRGYEYDYWGQGTQVTVSS
8.70
LV1184xVδ2 (bispecific antibody, Orientation N-term-anti-Nectin-4 VHH-linker-anti-Vδ2 VHH (5C8); no Fc; also called Nectin-4xVδ2 bispecific VHH) EVQLVESGGGLVQAGGSLRLSCAASGSISSINLMGWFRQAPAKQRELVTSISPGGSVRYADSVKGRFTISRDVAKNTVDLQMNSLKPEDTAVYYCAAESERTYYFDSWGQGTQVTVSSGGGGSEVQLVESGGGLVQAGGSLRLSCAASGRPFSNYAMGWFRQAPGKEREFVAAISWSGGSTSYADSVKGRFTISRDNAKNTVYLQMNSPKPEDTAIYYCAAQFSGADYGFGRLGIRGYEYDYWGQGTQVTVSS
10.15
LV1181xVδ2 (bispecific antibody, Orientation N-term-anti-Nectin-4 VHH-linker-anti-Vδ2 VHH (5C8); no Fc; also called Nectin-4xVδ2 bispecific VHH) EVQLVESGGGLVQAGGSLRLSCAASGSISSINLMGWHRQAPGKQRELVATITRGGSTNYADSVKGRFTISRDNGKNTVYLQMNSLKPEDTAAYYCVDVEPSGMGWRDYWGQGTQVTVSSGGGGSEVQLVESGGGLVQAGGSLRLSCAASGRPFSNYAMGWFRQAPGKEREFVAAISWSGGSTSYADSVKGRFTISRDNAKNTVYLQMNSPKPEDTAIYYCAAQFSGADYGFGRLGIRGYEYDYWGQGTQVTVSS
9.59

Data credit: patent EP4438624A1
